Target: T1, human LAP-TGFB1 Fc fusion (human)
T1 construct: also called human LAP-TGFβ1-Fc; human LAP-TGFβ-Fc isoform 1
T1 sequence (chain, as listed by the source limits assumed): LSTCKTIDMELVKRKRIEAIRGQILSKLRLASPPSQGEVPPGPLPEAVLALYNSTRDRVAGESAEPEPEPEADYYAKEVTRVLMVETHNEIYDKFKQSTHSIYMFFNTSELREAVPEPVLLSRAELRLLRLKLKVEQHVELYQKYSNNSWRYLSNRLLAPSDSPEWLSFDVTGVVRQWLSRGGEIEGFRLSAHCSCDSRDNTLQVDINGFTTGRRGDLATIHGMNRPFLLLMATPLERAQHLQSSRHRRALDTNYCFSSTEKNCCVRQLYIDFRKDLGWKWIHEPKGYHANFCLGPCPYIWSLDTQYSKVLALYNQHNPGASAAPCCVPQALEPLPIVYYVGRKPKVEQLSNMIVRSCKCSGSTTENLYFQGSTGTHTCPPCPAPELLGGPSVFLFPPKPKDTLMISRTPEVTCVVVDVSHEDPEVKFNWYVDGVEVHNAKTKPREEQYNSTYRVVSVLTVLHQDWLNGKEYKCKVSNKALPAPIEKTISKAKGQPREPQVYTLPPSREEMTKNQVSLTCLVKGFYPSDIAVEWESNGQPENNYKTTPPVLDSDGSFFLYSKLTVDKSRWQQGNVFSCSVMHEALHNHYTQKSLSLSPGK
Test: SPR pH 7.4, antigen-Fc captured, Fab analyte
Give kon for every item shown.
Report the value in M⁻¹ s⁻¹ with no unit label.

**Query** For 64BLH (Fab, V domains shown, also called 16BLM Fab) VH: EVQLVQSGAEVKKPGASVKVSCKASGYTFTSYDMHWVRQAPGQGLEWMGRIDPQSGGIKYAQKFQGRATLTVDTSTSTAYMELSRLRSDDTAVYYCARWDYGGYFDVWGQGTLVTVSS VL: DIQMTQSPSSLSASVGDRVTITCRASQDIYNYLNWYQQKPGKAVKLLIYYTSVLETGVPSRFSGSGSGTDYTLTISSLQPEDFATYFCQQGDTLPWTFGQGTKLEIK , what is its reported kon?
**Result** 6.51e+06

**Query** Also 55BLH (Fab, V domains shown, also called 07BLM Fab) VH: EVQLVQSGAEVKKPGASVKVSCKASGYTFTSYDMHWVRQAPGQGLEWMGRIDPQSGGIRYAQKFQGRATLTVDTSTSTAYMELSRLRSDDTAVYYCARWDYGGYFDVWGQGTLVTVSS VL: DIQMTQSPSSLSASVGDRVTITCRASQDIYSYLNWYQQKPGKAVKLLIYYTSNLETGVPSRFSGSGSGTDYTLTISSLQPEDFATYFCQQGDTLPWTFGQGTKLEIK ?
**Result** 9.08e+06

**Query** Also 57BLH (Fab, V domains shown, also called 09BLM Fab) VH: EVQLVQSGAEVKKPGASVKVSCKASGYTFTSYDMHWVRQAPGQGLEWMGRIDPISGGIKYAQKFQGRATLTVDTSTSTAYMELSRLRSDDTAVYYCARWDYGGYFDVWGQGTLVTVSS VL: DIQMTQSPSSLSASVGDRVTITCRASQDIFNYLNWYQQKPGKAVKLLIYYTSHLETGVPSRFSGSGSGTDYTLTISSLQPEDFATYFCQQGDTLPWTFGQGTKLEIK ?
**Result** 6.06e+06
